List of solubility values.
EXPERIMENT_NOTES: water solubility of the crystalline form in phosphate buffer
Format: physicochemical
CONDITION_LABEL: aqueous buffer; pH 6.8 (phosphate buffer; 50 mM where stated); read-out: water solubility of (S)-1-((R)-3-amino-1-(4-((6-amino-9H-purin-9-yl)methyl)-6-(2,5-difluoro-4-methoxyphenyl)pyridin-3-yl)piperidin-3-yl)-2,2-difluoroethan-1-ol
Write the value in µg/mL as a bare number.

Problem: Form field: reported solubility of COc1cc(F)c(-c2cc(Cn3cnc4c(N)ncnc43)c(N3CCC[C@](N)([C@H](O)C(F)F)C3)cn2)cc1F [Example 2]
Solution: 210

Problem: Form field: reported solubility of COc1cc(F)c(-c2cc(Cn3cnc4c(N)ncnc43)c(N3CCC[C@](N)([C@H](O)C(F)F)C3)cn2)cc1F.Cl [Example 1]
Solution: 220
